Reference for the values: patent US6780996B2

Below, each entry is listed alongside its reported melting point.

1) COCCOc1ccc2c(Nc3ccc(Cl)cc3Cl)c(C#N)cnc2c1 [Example 34]	144 to 145 °C
2) COc1cc(Nc2c(C#N)cnc3cc(OCc4ccccc4)c(OC)cc23)c(Cl)cc1Cl [Example 6]	198 to 200 °C

Below: the item to evaluate.
Exercise: Need melting point of COc1cc(Nc2c(C#N)cnc3cc(SCc4ccccc4)c(OC)cc23)c(Cl)cc1Cl [Example 11] , thanks.
Key: 123 to 125 °C

====

Below, each entry is listed alongside its reported melting point.

In the examples that follow, each entry is paired with its recorded melting point.
1) CC#CCOc1cc2ncc(C#N)c(Nc3cc(OC)c(Cl)cc3Cl)c2cc1OC	193 to 197 °C
2) COc1cc2c(Nc3ccc(Sc4nccn4C)c(Cl)c3)c(C#N)cnc2cc1N(C)CCCN(C)C	196 to 201 °C

Below: the item to evaluate.
Exercise: Need melting point of COCCOc1ccc2c(Nc3cc(OC)c(Cl)cc3Cl)c(C#N)cnc2c1 , thanks.
Key: 182 to 183 °C
